# Test system: K-562 leukemia
# assayComment: NCI tumour cell line growth inhibition, 48 h
Form field: TGI (one value per entry).
reportedMetric: TGI

>>> recordedresult("Cc1cccc(C(C)(C)C)c1NC(=O)C(C#N)C1=C(Cl)C(=O)c2ccccc2C1=O (stereo unspecified)")
"10.2 µM"
>>> recordedresult("Oc1cc(O)c2c(c1)O[C@H](c1ccc(O)c(O)c1)[C@@H](O)C2")
"> 100 µM"
>>> recordedresult("OCC#CCOCC#Cc1ccccc1C#CCOCC#CCO")
"90 µM"
>>> recordedresult("CC(=O)Nc1ccccc1-c1nc2ccccc2nc1-c1ccccc1")
"> 100 µM"
>>> recordedresult("C[C@@H](O)[C@@H](C)Oc1nc(Nc2ccc(S(=N)(=O)C3CC3)cc2)ncc1C(F)(F)F (stereo partly specified)")
"> 100 µM"
>>> recordedresult("COc1ccc(-n2cc(-c3cc(OC)c(OC)c(OC)c3)nc2SCc2ccc(Cl)cc2)cc1OC")
"> 100 µM"
>>> recordedresult("COC(=O)C(C(=O)C(=O)Nc1ccc(C)cc1)c1nc2ccc([N+](=O)[O-])cc2[nH]c1=O (stereo unspecified)")
"> 100 µM"
>>> recordedresult("COc1c(C)c(C/C=C(\\C)CC/C=C(\\C)CC/C=C(\\C)CCC=C(C)C)c(OC)c(OC)c1OC")
"> 100 µM"
>>> recordedresult("Nc1nc(N)c2c(n1)NC(c1sc(Cl)nc1Cl)CC(c1ccccc1)=N2 (stereo unspecified)")
"20.9 µM"
>>> recordedresult("[N-]=[N+]=CC(=O)C1(C(=O)C=[N+]=[N-])CC1")
"> 100 µM"
>>> recordedresult("Nc1nc(Cl)cc(NCC2(CO)CCCCC2)n1")
"> 100 µM"
